# Species: Rattus norvegicus
# procedureSummary: Ratio of biodistribution in kidney and blood in normal Wistar rats at 30 min after injecting the compound
# Format: ADME, organism-based
# protocolConditions: in vivo, 0.5 h
assayEndpoint: ID/organ

P: O=C(O)CN(CCN(CCN(CC(=O)O)CC(=O)O)[C@H](Cc1ccccc1)C(=O)O)CC(=O)O
Q: O=C(O)CN(CCN(CCN(CC(=O)O)CC(=O)O)[C@@H](Cc1ccccc1)C(=O)O)CC(=O)O
Sorting ascending by ID/organ, which comes first: P or Q ? Response format: the label of the selected entry.
P

---

# Species on record: Rattus norvegicus
# procedureSummary: Ratio of biodistribution in liver and blood in normal Wistar rats at 15 min. after injecting the compound
# Assay type: ADME, organism-based
# protocolConditions: in vivo, 0.25 h
assayEndpoint: ID/organ

P: O=C(O)CN(CCN(CCN(CC(=O)O)CC(=O)O)[C@H](Cc1ccccc1)C(=O)O)CC(=O)O
Q: O=C(O)CN(CCN(CCN(CC(=O)O)CC(=O)O)[C@@H](Cc1ccccc1)C(=O)O)CC(=O)O
Given the listed items, does P or Q have the lesser reported ID/organ? Provide the label of your selected option as the answer.
Q

---

# Organism: Rattus norvegicus
# procedureSummary: Ratio of biodistribution in liver and blood in normal Wistar rats at 30 min. after injecting the compound
# Type: ADME, organism-based
# protocolConditions: in vivo, 0.5 h
assayEndpoint: ID/organ

A: O=C(O)CN(CCN(CCN(CC(=O)O)CC(=O)O)[C@H](Cc1ccccc1)C(=O)O)CC(=O)O
B: O=C(O)CN(CCN(CCN(CC(=O)O)CC(=O)O)[C@@H](Cc1ccccc1)C(=O)O)CC(=O)O
Lab log: flag the item ( A or B ) with the smaller ID/organ figure. Answer = label.
B
(B: 0.9, A: 1.55)

---

# Organism: Rattus norvegicus
# procedureSummary: Ratio of biodistribution in kidney and blood in normal Wistar rats at 15 min after injecting the compound.
# Format: ADME, organism-based
# protocolConditions: in vivo, 0.25 h
assayEndpoint: ID/organ
Just the number, please, no unit after it.

Name the reported ID/organ value associated with the compound O=C(O)CN(CCN(CCN(CC(=O)O)CC(=O)O)[C@H](Cc1ccccc1)C(=O)O)CC(=O)O
0.36

---

# Species: Rattus norvegicus
# procedureSummary: Ratio of biodistribution in kidney and blood in normal Wistar rats at 5 min after injecting the compound.
# Assay type: ADME, organism-based
# protocolConditions: in vivo
assayEndpoint: ID/organ
Give the value as a plain number.

Record request: ID/organ value, item O=C(O)CN(CCN(CCN(CC(=O)O)CC(=O)O)[C@H](Cc1ccccc1)C(=O)O)CC(=O)O
0.33

---

# procedureSummary: Compound was tested for % clearance through the urine in normal rat
# Type: ADME, organism-based
assayEndpoint: dose excreted (%)

// query dose excreted value for entry O=C(O)CN(CCN(CCN(CC(=O)O)CC(=O)O)[C@H](Cc1ccccc1)C(=O)O)CC(=O)O
51.9

Next compound: O=C(O)CN(CCN(CCN(CC(=O)O)CC(=O)O)[C@@H](Cc1ccccc1)C(=O)O)CC(=O)O
62

---

# procedureSummary: Compound was tested for % clearance through the faeces in jaundice Wistar rats
# Format: ADME, organism-based
# protocolConditions: rat, read-out: Feces
assayEndpoint: dose excreted (%)
Give just the number in %; leave the unit off.

dose excreted lookup needed for O=C(O)CN(CCN(CCN(CC(=O)O)CC(=O)O)[C@H](Cc1ccccc1)C(=O)O)CC(=O)O , thanks.
10.6
